FYI, the data here is from PubChem BioAssay (NCI).

Some molecules, each annotated with its measured growth inhibition.
experiment-description: NCI Yeast Anticancer Drug Screen. Data for the rad50 strain (AID 155);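 further: 0% = growth of vehicle-only cultures of the same strain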
condition-label: S. cerevisiae rad50 strain growth inhibition; at 50.0 µM; stronger effect = higher value
The panel holds about 79,000 compounds, 15% with a hit somewhere; the sample as a whole holds those more often.
measure: growth inhibition (%)

{"molecule": "O=C(O)/C=C/C(=O)Nc1cc(Cl)ccc1Cl", "measure": "growth inhibition", "units-of-measure": "%", "recorded-value": 9.6}
{"molecule": "CC1(O)CC2CC1C(C(=O)O)C2C(=O)O (stereo unspecified)", "measure": "growth inhibition", "units-of-measure": "%", "recorded-value": -0.85}
{"molecule": "Cc1ccc(OCC2OC(n3cnc4c(Cl)nc(Cl)nc43)CC2Oc2ccc(C)cc2)cc1 (stereo unspecified)", "measure": "growth inhibition", "units-of-measure": "%", "recorded-value": -20.4}
{"molecule": "CCOc1ccc(NC(=S)NC2CCCCCCCCCCC2)cc1", "measure": "growth inhibition", "units-of-measure": "%", "recorded-value": 15.7}
{"molecule": "CN(c1ccccc1Cl)S(C)(=O)=O", "measure": "growth inhibition", "units-of-measure": "%", "recorded-value": -4.2}
{"molecule": "O=C1c2ccccc2C(=O)N1/N=C/c1cc(Cl)cc(Cl)c1O", "measure": "growth inhibition", "units-of-measure": "%", "recorded-value": 0.95}
{"molecule": "O=C(O)c1ccccc1Oc1ccccc1C(=O)O", "measure": "growth inhibition", "units-of-measure": "%", "recorded-value": -8.75}
{"molecule": "CCCCCCCCOC(=O)C(=O)C(C#N)c1ccccc1 (stereo unspecified)", "measure": "growth inhibition", "units-of-measure": "%", "recorded-value": 6.95}
{"molecule": "CNC(=O)c1cccnc1", "measure": "growth inhibition", "units-of-measure": "%", "recorded-value": -5.35}
{"molecule": "N#C/C(=C1C=C(Br)/C(=N\\O)C=C\\1Cl)c1ccc(Cl)cc1", "measure": "growth inhibition", "units-of-measure": "%", "recorded-value": 30.9}
{"molecule": "CCO/C=C1\\SC(=S)N(c2ccc(C(=O)O)cc2)C1=O", "measure": "growth inhibition", "units-of-measure": "%", "recorded-value": -6.05}

* * *

experiment-description: NCI Yeast Anticancer Drug Screen. Data for the mec2-1 strain (AID 157)
condition-label: S. cerevisiae mec2-1 strain, at 50.0 µM, stronger effect = higher value
About 79,000 compounds went through this panel and 15% of them were active in at least one assay; those are over-represented in the sample as a whole.
measure: growth inhibition (%)

{"molecule": "ClCCOC(OCCCl)OCCCl", "units-of-measure": "%", "recorded-value": -28.3}
{"molecule": "C(=N\\n1cnnc1)/c1ccc2c(c1)CCC2", "units-of-measure": "%", "recorded-value": -34.5}
{"molecule": "CC(=O)Nc1ccc(/C=C/C(=O)c2ccc(Cl)cc2)cc1", "units-of-measure": "%", "recorded-value": -4.65}
{"molecule": "NC(=O)C(=O)N/N=C/c1ccc2c(c1)CCC2", "units-of-measure": "%", "recorded-value": -10.9}
{"molecule": "CC(=Nc1ccncc1)C(C)=Nc1ccncc1", "units-of-measure": "%", "recorded-value": 93.6}
{"molecule": "CCCCCCCCCC(=O)CC(=O)c1c(O)cc(O)cc1O", "units-of-measure": "%", "recorded-value": 91.3}
{"molecule": "O=[N+]([O-])c1cc([N+](=O)[O-])c2nc3ccccn3c2c1", "units-of-measure": "%", "recorded-value": -43.9}
{"molecule": "C[Si](C)(CCl)N[Si](C)(C)CCl", "units-of-measure": "%", "recorded-value": -33.9}
{"molecule": "NS(=O)(=O)c1ccc(NC(=O)/C=C/C(=O)O)cc1", "units-of-measure": "%", "recorded-value": -10.4}
{"molecule": "CC(=O)c1ccc(NC(=O)/C(CC(=O)/C=C/c2ccccc2)=N/NC(N)=S)cc1", "units-of-measure": "%", "recorded-value": -32.4}
{"molecule": "CCn1c(C)[n+](CC)c2ccc(C(F)(F)F)cc21", "units-of-measure": "%", "recorded-value": -10.7}
{"molecule": "c1ccc(N(c2ccccc2)c2ccccc2)cc1", "units-of-measure": "%", "recorded-value": -14.7}
{"molecule": "C=CCOc1cccc(OCC=C)c1C", "units-of-measure": "%", "recorded-value": -20}
{"molecule": "CCC(=O)N/N=C/C=N/NC(=O)c1ccncc1", "units-of-measure": "%", "recorded-value": -31.8}
{"molecule": "COc1cccc(N2C(=O)CSC2=S)c1", "units-of-measure": "%", "recorded-value": 7.95}
{"molecule": "COc1ccc(N=C(C)C(C)=Nc2ccc(OC)cc2)cc1", "units-of-measure": "%", "recorded-value": 3}
{"molecule": "CC(=O)NCc1cc(CNC(C)=O)c(C)cc1C", "units-of-measure": "%", "recorded-value": -13.7}
{"molecule": "COC(=O)c1ccc(NC(=O)O/N=C(\\Cl)C(C)C)cc1", "units-of-measure": "%", "recorded-value": -20.7}
{"molecule": "O=C(CCc1ccc(O)c(O)c1)c1ccc(O)c(O)c1O", "units-of-measure": "%", "recorded-value": -19.9}
{"molecule": "CC1CCN(c2ccc([N+](=O)[O-])cc2[N+](=O)[O-])CC1", "units-of-measure": "%", "recorded-value": 3.85}
{"molecule": "C[N+](C)(CCNC(=O)c1cccc2cc3ccccc3nc12)Cc1ccc([N+](=O)[O-])s1", "units-of-measure": "%", "recorded-value": -37.2}
{"molecule": "CC(=O)C1=CCC2C3CC(C)=C4CC(O)CCC4(C)C3CCC12C (centres undefined)", "units-of-measure": "%", "recorded-value": -1.15}
{"molecule": "O=c1oc(-c2cccc([N+](=O)[O-])c2)nc2ccccc12", "units-of-measure": "%", "recorded-value": -10.2}
{"molecule": "COc1cccc(/C=C/C(=O)c2ccc(Cl)cc2)c1OC", "units-of-measure": "%", "recorded-value": 30.1}
{"molecule": "CCOC(=O)c1c(N)sc2c1CCN(Cc1ccccc1)C2", "units-of-measure": "%", "recorded-value": 17.8}
{"molecule": "N#C/C(=C/c1ccc(O)c(O)c1)C(N)=O", "units-of-measure": "%", "recorded-value": -4.15}
{"molecule": "CCOC(=O)c1c(C)nc(C)c(C(=O)OCC)c1-c1cccc([N+](=O)[O-])c1", "units-of-measure": "%", "recorded-value": 2.35}
{"molecule": "O=C(Nc1cccc(NC(=O)C(=O)C2CCC3=C(Sc4ccccc4N3)C2=O)n1)C(=O)C1CCC2=C(Sc3ccccc3N2)C1=O (centres undefined)", "units-of-measure": "%", "recorded-value": 13.8}
{"molecule": "Cn1/c(=N\\N=C\\C(=O)O)sc2ccccc21", "units-of-measure": "%", "recorded-value": -13.8}
{"molecule": "Cc1ccc(OCC2OC(n3cnc4nc(N)nc(Cl)c43)CC2Oc2ccc(C)cc2)cc1 (centres undefined)", "units-of-measure": "%", "recorded-value": 28.4}
{"molecule": "COC(=O)c1cc(C#N)[nH]c1-c1ccsc1", "units-of-measure": "%", "recorded-value": -8}
{"molecule": "C/C=C(/C)N(C(C)=O)N(C(C)=O)c1ccc([N+](=O)[O-])cc1[N+](=O)[O-]", "units-of-measure": "%", "recorded-value": -18.2}
{"molecule": "CCCCCC(O)(CCCCC)CCCCCCCCC1=C(O)c2ccccc2C(=O)C1=O", "units-of-measure": "%", "recorded-value": -18.6}
{"molecule": "C=C1CC2(C)CCC(OC(=O)C3(C)OC3C)C(C)(OC(C)=O)C2CC1=C(C)C (centres undefined)", "units-of-measure": "%", "recorded-value": -36.8}
{"molecule": "O=C(CCc1ccc(O)cc1)N/N=C/c1cc(Br)ccc1O", "units-of-measure": "%", "recorded-value": -38.4}
{"molecule": "COc1ccc(/C=N/N2C(=O)c3ccccc3C2=O)cc1OC", "units-of-measure": "%", "recorded-value": 1.2}
{"molecule": "COC(=O)c1cnn2c1n[n+]([O-])c1ccccc12", "units-of-measure": "%", "recorded-value": -36}
{"molecule": "NC(=S)N/N=C/c1cc([N+](=O)[O-])ccc1Cl", "units-of-measure": "%", "recorded-value": -9.75}
{"molecule": "c1coc(-c2nc(N=C3N=c4ccccc4=N3)[nH]c2-c2ccco2)c1", "units-of-measure": "%", "recorded-value": 18.9}

* * *

Some compounds, each annotated with its measured growth inhibition.
experiment-description: NCI Yeast Anticancer Drug Screen. Data for the bub3 strain (AID 167)
condition-label: S. cerevisiae bub3 mutant strain, at 50.0 µM, stronger effect = higher value
Compounds without any hit were thinned out: in the full panel of roughly 79,000, 15% have a hit.

{"compound": "COc1ccc2nc(N/N=C/c3ccc(C)s3)cc(C)c2c1", "growth inhibition [%]": 0.7}
{"compound": "COC(=O)c1nc(Br)cnc1N", "growth inhibition [%]": 4}
{"compound": "Cc1ccc2c(/C=C/c3ccc(N(C)C)cc3)ccc(C(C)C)cc1-2", "growth inhibition [%]": -22.2}
{"compound": "CC(=O)[C-](C(C)=O)c1ccccc1.CC(=O)[C-](C(C)=O)c1ccccc1.CC(=O)[C-](C(C)=O)c1ccccc1.[Cl-].[Zr+4]", "growth inhibition [%]": 14.8}
{"compound": "Cc1cc(N(CCC#N)CCC#N)ccc1/C=N/NC(=O)c1cc(Cl)ccc1O", "growth inhibition [%]": -23.7}
{"compound": "O=C1C=CC=C/C1=C1\\N=C(c2ccccc2OCC(=O)c2ccc(Br)cc2)SS1", "growth inhibition [%]": -0.75}
{"compound": "Cc1ccc(-c2noc(C)n2)cc1", "growth inhibition [%]": 4}
{"compound": "COC(=O)C(=O)C(C(=O)C(=O)Nc1nc2ccc(C)cc2s1)c1nc2ccc([N+](=O)[O-])cc2[nH]c1=O (stereo not drawn)", "growth inhibition [%]": 26.1}
